system: Vero cells; assay: Cytotoxicity assay on uninfected cells; conditions: uninfected Vero cells, day 3, microscopically or MTS/PMS
readout.label: CC50

I'd like to know its CC50. The compound in question is O=c1nc(NO)ccn1[C@@H]1O[C@H](CO)[C@@H](O)[C@H]1O [EIDD-1931, β-D-N^4-hydroxycytidine]
> 100 µM

---

experiment: Cytotoxicity assay on uninfected cells; details: African green monkey
Entries annotated with measured CC50 at 3 days
Your answer is read as µM, so omit the unit and give the number.

Below, each entry is followed by its recorded CC50 at 3 days result.
C[C@@]1(O)[C@H](O)[C@@H](CO)O[C@H]1n1ccc(N)nc1=O [2’CMC, 2′-C-methylcytidine] :: 167
NC(=O)c1nc(F)c[nH]c1=O [Favipiravir] :: 2840

What value of measured CC50 at 3 days is listed for NC(=O)c1ncn([C@@H]2O[C@H](CO)[C@@H](O)[C@H]2O)n1 [Ribavirin] ?
250

Reported CC50 at 3 days for Nc1ncnc2c([C@@H]3N[C@H](CO)[C@@H](O)[C@H]3O)c[nH]c12 [Galidesivir] : what is it?
238
